# ASSAYED TARGET: recombinant human Dopamine Subtype D2s receptors (Homo sapiens)
# Construct: purchased Perkin Elmer
# Sequence (P14416 1-414 isoform P14416-2): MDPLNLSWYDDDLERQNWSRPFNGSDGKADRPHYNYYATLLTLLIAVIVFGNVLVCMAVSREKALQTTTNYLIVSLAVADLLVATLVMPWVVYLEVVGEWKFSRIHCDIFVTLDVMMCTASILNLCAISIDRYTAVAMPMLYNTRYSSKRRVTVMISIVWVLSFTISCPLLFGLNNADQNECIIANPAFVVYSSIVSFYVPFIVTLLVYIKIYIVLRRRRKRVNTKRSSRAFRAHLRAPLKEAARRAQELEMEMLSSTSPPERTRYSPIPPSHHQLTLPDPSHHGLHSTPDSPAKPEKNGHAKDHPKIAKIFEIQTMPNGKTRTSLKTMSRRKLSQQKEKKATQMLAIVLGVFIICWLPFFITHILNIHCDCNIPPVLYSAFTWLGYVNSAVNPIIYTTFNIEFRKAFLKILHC
# TEST: Dopamine D2 selectivity binding assay ([3H]-spiperone)
# ASSAY CONTEXT: inhibition of [3H]-spiperone (0.16 nM) binding; read-out: D2 bind pIC50 (converted)
# Protocol: Membranes containing recombinant human Dopamine Subtype D2s receptors were obtained from Perkin Elmer. […] Assays were performed in U-bottomed 96-well polypropylene plates. […] Five washes with 250 μL wash buffer (50 mM HEPES, 1 mM EDTA, 120 mM NaCl, pH 7.4) were performed at 4° C. to remove unbound radioactivity. […] The plates were sealed (TopSeal A) and filter-bound radioactivity was measured with a scintillation counter (TopCount, Packard BioScience) using a 3-minute counting protocol. […]
Structures can show the parent of a compound that is named as a salt.
Give measured IC50 for each item. Keep answers brief.
Give bare numbers, in nM.

Below, each entry is followed by its recorded IC50 result.
Quick check: IC50 of CC(C)(C)CN(CCNCCc1ccc(O)c2[nH]c(=O)sc12)C(=O)CCNCCc1cccc(F)c1 [Example 44, bis-trifluoroacetic acid salt] ?
126

Now the molecule O=C(CCNCCc1ccc(F)cc1Cl)N(CCNCCc1ccc(O)c2[nH]c(=O)sc12)C1CCCCCC1 [Example 57, bis-trifluoroacetic acid salt]
31.6

Others:
Quick check: IC50 of O=C(CCNCCc1cccc(F)c1F)N(CCNCCc1ccc(O)c2[nH]c(=O)sc12)C1CCCCC1 [Example 81, bis-trifluoroacetic acid salt] ?
316

These measurements were taken from patent US20100022491A1.
